target: Voltage-gated inwardly rectifying potassium channel KCNH2 (Homo sapiens, UniProt Q12809); experiment: Inhibition of human ERG by Ionworks assay
Sequence (Q12809 whole entry): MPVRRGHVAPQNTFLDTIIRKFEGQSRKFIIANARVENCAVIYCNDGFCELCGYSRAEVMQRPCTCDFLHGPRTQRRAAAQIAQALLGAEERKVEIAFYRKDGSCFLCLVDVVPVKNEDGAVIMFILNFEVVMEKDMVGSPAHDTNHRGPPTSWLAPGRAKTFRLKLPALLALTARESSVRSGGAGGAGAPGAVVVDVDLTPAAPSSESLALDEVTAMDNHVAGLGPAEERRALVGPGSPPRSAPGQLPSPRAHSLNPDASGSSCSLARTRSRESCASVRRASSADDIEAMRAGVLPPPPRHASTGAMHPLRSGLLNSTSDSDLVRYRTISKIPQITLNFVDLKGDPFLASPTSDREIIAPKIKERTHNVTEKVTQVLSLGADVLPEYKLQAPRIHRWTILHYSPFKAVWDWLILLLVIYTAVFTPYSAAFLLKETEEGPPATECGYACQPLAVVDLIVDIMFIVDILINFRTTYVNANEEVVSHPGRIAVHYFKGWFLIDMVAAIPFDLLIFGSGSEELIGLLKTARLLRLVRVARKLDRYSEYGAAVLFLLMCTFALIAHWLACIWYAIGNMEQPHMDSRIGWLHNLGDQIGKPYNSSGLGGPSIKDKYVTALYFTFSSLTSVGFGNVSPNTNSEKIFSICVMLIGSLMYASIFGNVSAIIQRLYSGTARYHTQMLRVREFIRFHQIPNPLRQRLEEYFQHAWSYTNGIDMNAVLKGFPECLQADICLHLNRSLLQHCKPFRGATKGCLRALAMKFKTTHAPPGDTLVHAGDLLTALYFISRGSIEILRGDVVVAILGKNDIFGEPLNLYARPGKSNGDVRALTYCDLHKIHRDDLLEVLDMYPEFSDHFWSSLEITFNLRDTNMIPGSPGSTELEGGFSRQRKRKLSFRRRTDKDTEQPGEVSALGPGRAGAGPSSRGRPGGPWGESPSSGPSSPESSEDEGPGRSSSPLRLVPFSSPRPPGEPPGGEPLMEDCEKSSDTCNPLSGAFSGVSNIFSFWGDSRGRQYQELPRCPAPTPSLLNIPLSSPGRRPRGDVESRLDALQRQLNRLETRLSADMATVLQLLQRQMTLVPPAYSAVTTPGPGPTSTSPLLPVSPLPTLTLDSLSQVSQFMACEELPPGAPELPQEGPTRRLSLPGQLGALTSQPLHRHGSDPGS
Readout Label: IC50 (µM)
Answers are plain numbers, in µM.

Example entries and their recorded answers appear below.
N#Cc1ccc2ccc(=O)n(CCN3CC[C@H](NCc4cc5c(cn4)OCCO5)[C@H](O)C3)c2c1 :: 156
COc1ccc2ncc(=O)n(CCN3CC[C@H](NCc4cc5c(cn4)OCCO5)[C@@H](OC)C3)c2c1 (single isomer, unassigned; enantiomer 1) :: 93
CO[C@H]1CN(CCn2c(=O)ccc3ccc(C#N)cc32)CC[C@@H]1NCc1cc2c(cn1)OCCO2 (single isomer, unassigned; enantiomer 1) :: 176
COc1ccc2ncc(=O)n(CCN3CC[C@H](NCc4ccc5c(n4)NC(=O)CO5)[C@H](O)C3)c2c1 :: 172
N#Cc1ccc2ccc(=O)n(CCN3CC[C@@H](NCc4cc5c(cn4)OCCO5)[C@@H](F)C3)c2c1 :: 199

Quick one: give me IC50 for each item below, same order please.
1. COc1ccc2ncc(=O)n(CCN3CC[C@@H](NCc4ccc5c(n4)NC(=O)CO5)[C@@H](O)C3)c2c1
2. COc1ccc2ncc(=O)n(CCN3CC[C@@H](NCc4ccc5c(n4)NC(=O)CO5)[C@@H](OC)C3)c2c1
3. COc1ccc2ncc(=O)n(CCN3CC[C@@H](NCc4ccc5c(n4)NC(=O)CO5)[C@H](OC)C3)c2c1 (single isomer, unassigned; enantiomer 1)
4. N#Cc1ccc2ccc(=O)n(CCN3CCC(NCc4cc5c(cn4)OCCO5)CC3)c2c1
5. N#Cc1ccc2ccc(=O)n(CCN3CC[C@H](NCc4cc5c(cn4)OCCO5)[C@H](F)C3)c2c1
6. CO[C@H]1CN(CCn2c(=O)ccc3ccc(C#N)cc32)CC[C@H]1NCc1cc2c(cn1)OCCO2
7. N#Cc1ccc2ccc(=O)n(CCN3CC[C@@H](NCc4cc5c(cn4)OCCO5)[C@@H](O)C3)c2c1
8. N#Cc1ccc2ccc(=O)n(CCN3CC[C@H](NCc4cc5c(cn4)OCCO5)[C@@H](F)C3)c2c1 (single isomer, unassigned; enantiomer B)

Result:
1: 152; 2: 88; 3: 27; 4: 44; 5: 233; 6: 174; 7: 117; 8: 122

Request: So what does the record say about IC50 for COc1ccc2ncc(=O)n(CCN3CC[C@@H](NCc4cc5c(cn4)OCCO5)[C@@H](OC)C3)c2c1 ?
Result: 75

Data provenance is ChEMBL document CHEMBL2163267.
